Value source: BindingDB's records for doi:10.1021/jm049768a

Target: 3-phosphoinositide-dependent protein kinase 1 (Homo sapiens) (UniProt O15530)
measured_quantity: pIC50
# pIC50: negative log10 of molar concentration; output just the value

# lookup: pIC50 of O=C1NC(=O)C(c2cnc3ccccn23)=C1c1cn2c3c(cccc13)CN(C(=O)N1CCCCC1)CC2
5.37
